Target: KIND2 (Homo sapiens, UniProt Q8WWL2)
Sequence (Q8WWL2 18-207): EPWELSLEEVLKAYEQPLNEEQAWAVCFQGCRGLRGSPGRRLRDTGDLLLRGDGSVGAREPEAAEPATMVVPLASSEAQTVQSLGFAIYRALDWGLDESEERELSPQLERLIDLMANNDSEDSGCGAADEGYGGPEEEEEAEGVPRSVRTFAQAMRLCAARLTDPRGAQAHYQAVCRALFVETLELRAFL
Assay: FP competition assay with FITC-labeled FSI peptide, KIND2
Format: binding
Parameters: His6 (N, cleaved yes); made in house; host or cells: E. coli BL21 (DE3)
Settings: FP assay
Measured metric: KIND2/FSI inhibitory activity in words

>  <Compound>
Clc1ccc2c(N3CCNCC3)ccnc2c1 [F671]

>  <Reported measurement>
complete drop in potency

$$$$
>  <Compound>
Clc1ccc2c(NCCCN3CCOCC3)ccnc2c1 [F669]

>  <Reported measurement>
complete drop in potency

$$$$
